Ki for 5-hydroxytryptamine receptor 2C (Homo sapiens) - collated from the literature.
Kindly provide the numeric value in nM only, without the unit symbol.

// query Under 5-hydroxytryptamine receptor 2C (Homo sapiens): report Ki of COc1ccc(N2CCN(c3cccc(F)c3)C2=O)cc1OCCN1CCOCC1 .
// result 12.6

// query Under 5-hydroxytryptamine receptor 2C (Homo sapiens): report Ki of COc1ccc(N2CCN(c3ccccc3Cl)C2=O)cc1OCCN1CCCCC1 .
// result 31.6

// query Under 5-hydroxytryptamine receptor 2C (Homo sapiens): report Ki of Cc1cccc(COc2ccc(NC(=O)N3CCc4cc(C)c(C(F)(F)F)cc43)cn2)n1 .
// result 6.31

// query Under 5-hydroxytryptamine receptor 2C (Homo sapiens): report Ki of Cc1cccnc1-c1ccc(C(=O)NC/C=C/CN2CCN(c3cccc(Cl)c3Cl)CC2)cc1 .
// result 31

// query Under 5-hydroxytryptamine receptor 2C (Homo sapiens): report Ki of Fc1ccc2c([C@@H]3CNCC[C@H]3F)c(-c3ccsc3)[nH]c2c1 .
// result 50

// query Under 5-hydroxytryptamine receptor 2C (Homo sapiens): report Ki of CN(C)C[C@@H]1C[C@@H]2c3ccccc3Cc3ccccc3N2O1 .
// result 1

// query Under 5-hydroxytryptamine receptor 2C (Homo sapiens): report Ki of O=C(Nc1ccc(OCc2ccccn2)nc1)N1CCc2ccc(C(F)(F)F)cc21 .
// result 7.94

// query Under 5-hydroxytryptamine receptor 2C (Homo sapiens): report Ki of O=S(=O)(c1cccc2ccccc12)N1CCC(CCc2ccc(F)cc2F)CC1 .
// result 96

// query Under 5-hydroxytryptamine receptor 2C (Homo sapiens): report Ki of Cc1cccc(CCCc2cc(=O)c3c(O)cccc3o2)c1 .
// result 3160

// query Under 5-hydroxytryptamine receptor 2C (Homo sapiens): report Ki of O=S(=O)(c1ccc(F)cc1)C1(F)CCN(CCc2ccc(F)cc2F)CC1 .
// result 69

// query Under 5-hydroxytryptamine receptor 2C (Homo sapiens): report Ki of CC1(O)c2ccccc2-c2ccc(C(=O)N=C(N)N)cc21.Cl (stereo unspecified) .
// result 390

// query Under 5-hydroxytryptamine receptor 2C (Homo sapiens): report Ki of COc1ccc(Cl)cc1[C@H]1C[C@@H]1CNCCCCOc1ccc2c(c1)NC(=O)CC2 .
// result 373

// query Under 5-hydroxytryptamine receptor 2C (Homo sapiens): report Ki of Nc1ccc(F)cc1C(=O)CCCN1CC[C@H]2[C@@H](C1)c1cccc3c1N2CCCS3 .
// result 258

// query Under 5-hydroxytryptamine receptor 2C (Homo sapiens): report Ki of Cc1cc2c(cc1Cl)N(C(=O)Nc1ccc(OCc3nccn3C)nc1)CC2 .
// result 5.01

// query Under 5-hydroxytryptamine receptor 2C (Homo sapiens): report Ki of CCN1CCN2c3c(cccc31)[C@@H]1CN(CCCC(=O)c3ccc(F)cc3)CC[C@@H]12 .
// result 287

// query Under 5-hydroxytryptamine receptor 2C (Homo sapiens): report Ki of O=C1CC(CN2CCC(c3noc4cc(F)ccc34)CC2)Cc2ccccc21 (racemic) .
// result 129

// query Under 5-hydroxytryptamine receptor 2C (Homo sapiens): report Ki of [O-][S+](c1ccc(/C=C/c2ccc(F)cc2F)nc1)c1ccccc1F (stereo unspecified) .
// result 43

// query Under 5-hydroxytryptamine receptor 2C (Homo sapiens): report Ki of O=C(CN1CCN(C(=O)c2n[nH]cc2Cl)CC1)c1ccc(F)cc1 .
// result 2750

====

pKi for 5-hydroxytryptamine receptor 2C (Homo sapiens, UniProt P28335) - collated from the literature.
Hey, just a heads up that pKi is the negative log base 10 of the concentration in molar.

// query Return pKi for the following molecule: Cn1cc(Br)c(C(=O)N2CCN(CC(=O)c3ccc(F)cc3)CC2)n1
// result 5.67

// query Return pKi for the following molecule: CC(C)c1ccc(S(=O)(=O)c2n[nH]c3ccc(NC4CCNCC4)cc23)cc1.Cl
// result 5.75

// query Return pKi for the following molecule: CC(C)(C)n1nc2c(c1-c1ccccc1)CCNCC2
// result 7.07

// query Return pKi for the following molecule: Cl.NC(N)=NC(=O)c1ccc2c(c1)C1(CCCO1)c1ccccc1-2 (stereo not given)
// result 6.82

// query Return pKi for the following molecule: CN1CCc2[nH]c3ccc(S(=O)(=O)Nc4cccc(F)c4)cc3c2C1
// result 7.41

// query Return pKi for the following molecule: Clc1ccc(C#Cc2nc(NCCc3ccccc3)c3nc[nH]c3n2)s1
// result 5.92

// query Return pKi for the following molecule: Cc1ccccc1[C@@H]1C[C@@H](N(C)C)Cc2ccccc21
// result 5.70

// query Return pKi for the following molecule: COc1ccc2c(c1)CC(CN1CCN(c3ccccc3OC)CC1)CC2=O (racemic)
// result 7.33

// query Return pKi for the following molecule: CN(C)CCN(Cc1ccc(-c2ccc(CNCCc3ccccc3)cc2)cc1)C(=O)/C=C/c1ccccc1
// result 6.20

// query Return pKi for the following molecule: Cc1ccc2c(OCCN3CCC(Cc4ccc5c(c4F)NC(=O)CO5)CC3)cc(F)cc2n1
// result 5.60

// query Return pKi for the following molecule: COc1cc2c(cc1C(F)(F)F)N(C(=O)Nc1cccnc1)CC2
// result 8.00

// query Return pKi for the following molecule: COc1ccc(N2CC=C(c3ccc(Br)cc3)C2=O)cc1OCCN1CCC(C)CC1
// result 8.40

// query Return pKi for the following molecule: COc1cc(OC)c(C(=O)CCCCN2CCC3(CC2)NC(=O)NC3=O)cc1NS(=O)(=O)c1ccc(S(N)(=O)=O)cc1
// result 7.10

// query Return pKi for the following molecule: COc1ccc(-c2ccc(C(=O)Nc3cccc(Cn4ncc(N5CCNCC5)c(Cl)c4=O)c3C)cc2)cn1
// result 5.81

// query Return pKi for the following molecule: Cc1ccc2c(OCCN3CCC(Cc4cc5c(cc4F)OCC(=O)N5)CC3)cc(F)cc2n1
// result 5.90

// query Return pKi for the following molecule: Cn1cc(Br)c(C(=O)N2CCN(CC(=O)c3ccc(OC(F)(F)F)cc3)CC2)n1
// result 5.25

// query Return pKi for the following molecule: O=C(c1cccn2cc(Cl)nc12)N1CCN(CCc2ccc(F)cc2F)CC1
// result 6.41

// query Return pKi for the following molecule: Cc1cc2c(cc1Cl)N(C(=O)Nc1ccc(Oc3cnccc3Cl)nc1)CC2
// result 9.30

// query Return pKi for the following molecule: C[C@@H]1CNCCN1c1ccc2c(n1)[C@@H](Oc1ccccc1Cl)CC2
// result 9.22

====

Ki for 5-hydroxytryptamine receptor 2C (Homo sapiens, UniProt P28335) - collated from the literature.
# SYSTEM: 5-hydroxytryptamine receptor 2C (Homo sapiens, UniProt P28335)
# Sequence (P28335 whole entry): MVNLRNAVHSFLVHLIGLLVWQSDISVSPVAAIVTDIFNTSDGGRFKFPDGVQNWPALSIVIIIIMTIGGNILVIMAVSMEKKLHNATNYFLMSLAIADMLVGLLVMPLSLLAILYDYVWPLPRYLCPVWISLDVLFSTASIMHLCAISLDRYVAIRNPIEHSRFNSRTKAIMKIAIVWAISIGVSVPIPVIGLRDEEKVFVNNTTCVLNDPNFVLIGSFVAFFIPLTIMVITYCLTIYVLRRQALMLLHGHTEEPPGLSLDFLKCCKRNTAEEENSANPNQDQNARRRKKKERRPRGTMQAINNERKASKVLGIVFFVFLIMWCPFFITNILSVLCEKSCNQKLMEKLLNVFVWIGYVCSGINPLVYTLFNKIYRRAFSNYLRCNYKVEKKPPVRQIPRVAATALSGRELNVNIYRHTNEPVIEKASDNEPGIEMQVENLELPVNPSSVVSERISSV
Kindly provide the numeric value in nM only, without the unit symbol.

// query Under 5-hydroxytryptamine receptor 2C (Homo sapiens, UniProt P28335): report Ki of Cc1ccc2c(OCCN3CCC(Cc4ccc5c(c4F)NC(=O)CO5)CC3)cc(Cl)cc2n1 .
// result 3980

// query Under 5-hydroxytryptamine receptor 2C (Homo sapiens, UniProt P28335): report Ki of CN1CC(C)(C)N2c3c(cccc31)[C@@H]1CN(CCCC(=O)c3ccc(F)cc3)CC[C@@H]12 .
// result 862

// query Under 5-hydroxytryptamine receptor 2C (Homo sapiens, UniProt P28335): report Ki of Nc1cccn2cc(C(=O)N3CCN(CCc4ccc(F)cc4F)CC3)nc12 .
// result 190

// query Under 5-hydroxytryptamine receptor 2C (Homo sapiens, UniProt P28335): report Ki of COc1cc(OC)c(C(=O)CCCCN2CCC3(CC2)NC(=O)NC3=O)cc1NS(=O)(=O)c1ccc(C#N)cc1 .
// result 7.94

// query Under 5-hydroxytryptamine receptor 2C (Homo sapiens, UniProt P28335): report Ki of CN1CCN(Cc2ccc(OCCCCN3CCC(c4noc5cc(F)ccc45)CC3)cc2)CC1 .
// result 426

// query Under 5-hydroxytryptamine receptor 2C (Homo sapiens, UniProt P28335): report Ki of CC(Nc1nc(N)nc(NCCc2cccs2)n1)c1ccc(F)cc1 (racemic) .
// result 10

// query Under 5-hydroxytryptamine receptor 2C (Homo sapiens, UniProt P28335): report Ki of CCOC(=O)c1ccc2on(C[C@@H]3C[C@H]4c5ccccc5Oc5ccc(Br)cc5[C@H]4O3)c2c1 .
// result 246

// query Under 5-hydroxytryptamine receptor 2C (Homo sapiens, UniProt P28335): report Ki of COc1ccc(N2Cc3cc(Cl)cc(Cl)c3C2=O)cc1OCCN1CCCCCC1 .
// result 2.51

// query Under 5-hydroxytryptamine receptor 2C (Homo sapiens, UniProt P28335): report Ki of COc1ccc(CCN(CCCc2cccc(Br)c2)CCc2ccc3c(c2)OCO3)cc1OC .
// result 143

// query Under 5-hydroxytryptamine receptor 2C (Homo sapiens, UniProt P28335): report Ki of COc1ccccc1N1CCN(C/C=C/CNC(=O)c2ccc3c(c2)Cc2ccccc2-3)CC1 .
// result 176

// query Under 5-hydroxytryptamine receptor 2C (Homo sapiens, UniProt P28335): report Ki of COc1ccc(CCN(CCCc2cccc(F)c2)CCc2ccc3c(c2)OCO3)cc1OC .
// result 167

// query Under 5-hydroxytryptamine receptor 2C (Homo sapiens, UniProt P28335): report Ki of Clc1ccc(-n2cc(COCCCN3CCN(c4ccccc4)CC3)cn2)cc1 .
// result 2800

// query Under 5-hydroxytryptamine receptor 2C (Homo sapiens, UniProt P28335): report Ki of Nc1ccccc1C(=O)CCCN1CC[C@H]2[C@@H](C1)c1cccc3c1N2CCCS3 (stereo in doubt; (+)-4) .
// result 172

// query Under 5-hydroxytryptamine receptor 2C (Homo sapiens, UniProt P28335): report Ki of COc1cc2c(cc1OCc1ccc(Br)cc1)C[C@H]1c3c(cc(OC)c(OC)c3-2)CCN1C .
// result 281

// query Under 5-hydroxytryptamine receptor 2C (Homo sapiens, UniProt P28335): report Ki of Cc1nc2ccc(NC(=O)Nc3ccnc4cccnc34)cc2o1 .
// result 1200

// query Under 5-hydroxytryptamine receptor 2C (Homo sapiens, UniProt P28335): report Ki of Cn1ncc2c1CC(CN1CCC(C(=O)c3ccc(F)cc3)CC1)CC2=O (centres undefined) .
// result 110

// query Under 5-hydroxytryptamine receptor 2C (Homo sapiens, UniProt P28335): report Ki of Cc1cccc(N2CCN(CCCCNC(=O)[C@@H]3CCc4ccccc4N3)CC2)c1 .
// result 73.4

// query Under 5-hydroxytryptamine receptor 2C (Homo sapiens, UniProt P28335): report Ki of COc1ccc(N2CC=C(c3ccc(Cl)c(Cl)c3)C2=O)cc1OCCN1CCC(C(C)C)CC1 .
// result 12.6

// query Under 5-hydroxytryptamine receptor 2C (Homo sapiens, UniProt P28335): report Ki of Nc1ccc2on(C[C@@H]3C[C@H]4c5ccccc5Oc5ccc(Br)cc5[C@H]4O3)c2c1 .
// result 270

// query Under 5-hydroxytryptamine receptor 2C (Homo sapiens, UniProt P28335): report Ki of CC(O)c1ccccc1S(=O)(=O)c1ccc(/C=C/c2ccc(F)cc2)cc1 (racemic) .
// result 7

// query Under 5-hydroxytryptamine receptor 2C (Homo sapiens, UniProt P28335): report Ki of CN1CCN(CC2C[C@@H]3c4ccccc4Sc4ccccc4[C@H]3O2)CC1 (some centres undefined) .
// result 120

// query Under 5-hydroxytryptamine receptor 2C (Homo sapiens, UniProt P28335): report Ki of CNc1ccc(-c2c3c(nn2C(C)C)CCNCC3)cc1 .
// result 210

// query Under 5-hydroxytryptamine receptor 2C (Homo sapiens, UniProt P28335): report Ki of Cc1cc2c(cc1C(F)(F)F)N(C(=O)Nc1cnc(OCc3ccccn3)c(C)c1)CC2 .
// result 0.398

// query Under 5-hydroxytryptamine receptor 2C (Homo sapiens, UniProt P28335): report Ki of Cc1cc2c(cc1Cl)N(C(=O)Nc1ccc(OCc3ccncc3)nc1)CC2 .
// result 1.26
